Tested on: MOLT-4 leukemia
protocol notes: NCI tumour cell line growth inhibition, 48 h
quantity: TGI

{"compound": "COC(=O)c1sc2c(Cl)c(Cl)sc2c1Cl", "reported result": "> 100 µM"}
{"compound": "N#Cc1cc2c(n(C3OC(CO)C(O)C(O)C3O)c1=S)CCC2 (centres undefined)", "reported result": "> 100 µM"}
{"compound": "C#CCN(CCCOc1ccc(Cl)cc1Cl)CCCSC(=O)CCCCCN1/C(=C\\C=C2/CCCC(/C=C/C3=[N+](CCCCCC(=O)[O-])c4ccccc4C3(C)C)=C2Cl)C(C)(C)c2ccccc21", "reported result": "> 100 µM"}
{"compound": "COc1ccc(/C=C2\\N=C3N(Cc4ccccc4)C=C(N)N3C2=O)cc1", "reported result": "> 100 µM"}
{"compound": "COc1cc2c(cc1OC)C(Sc1ccc(Cl)cc1)c1c(nc(N)c(C#N)c1N)O2 (centres undefined)", "reported result": "4.89 µM"}
{"compound": "COc1ccc(C2CC(c3cccc(Nc4ccncc4)c3)=NN2c2ccccc2)cc1 (centres undefined)", "reported result": "4.63 µM"}

Requested read-out: TGI. Entry: COc1ccc([C@H]2c3[nH]c4ccccc4c3C[C@H]3C(=O)N(CCCCCCC(=O)NO)CC(=O)N23)cc1
> 33.3 µM

Entry to check: COc1cc(-c2cc(OC)c(OC)c3ccc(Br)cc23)c2cc(Br)ccc2c1OC
> 100 µM

# repeat for CCOC(=O)C(NC(=O)c1ccccc1)(Nc1ccc(S(=O)(=O)Nc2cc(C)on2)cc1)C(F)(F)F (centres undefined)
> 100 µM
